Tested on: human IgG (Homo sapiens, UniProt P01857)
Sequence (P01857 1-328): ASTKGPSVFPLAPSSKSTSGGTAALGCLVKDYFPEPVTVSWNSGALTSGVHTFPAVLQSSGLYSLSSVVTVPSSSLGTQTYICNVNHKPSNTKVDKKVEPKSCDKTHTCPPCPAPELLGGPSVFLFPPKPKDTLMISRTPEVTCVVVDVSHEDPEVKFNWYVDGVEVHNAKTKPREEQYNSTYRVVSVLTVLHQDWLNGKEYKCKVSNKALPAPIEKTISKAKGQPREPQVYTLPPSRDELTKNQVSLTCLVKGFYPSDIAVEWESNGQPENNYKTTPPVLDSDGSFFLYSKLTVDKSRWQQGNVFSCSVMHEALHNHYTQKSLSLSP
Assay: SPR affinity analysis of IgG-binding peptides on immobilized IgG (BIAcore T200)
Experimental context: SPR, peptides N-terminally blocked with biotinylated PEG4, NHS group hydrolysed
Measured parameter: ka

Provide ka value for the following substance: GDDCAYHK(DSG-OH)GELVWCTFH-NH2 [Type I(R8K)-DSG-OH]
3.29E+05

Provide ka value for the following substance: GDDCAYHKGELVWCTFH-NH2 [Type I(R8K)]
1.25E+06

Provide ka value for the following substance: GPDCAYHRGELVWCTFH-NH2 [Type I]
1.57E+06

Provide ka value for the following substance: GDDCAYHK(DSS-OH)GELVWCTFH-NH2 [Type I(R8K)-DSS-OH]
1.68E+05
